Every entry's value here was drawn from patent US12102648B2.

- experimental-protocol: in vitro
- Format: in vitro ADME
- condition-notes: human; Caco-2 monolayer; ER>2 indicates potential efflux transporter substrate; read-out: ER (efflux ratio)
Quick rule for you: efflux ratio at 90 min under 3 gets true, anything else gets false.

Illustrative cases are given below, each with its answer.
CCC(=O)OC[C@H]1O[C@@](C#N)(c2ccc3c(NC(=O)c4ccccc4)ncnn23)[C@H](O)[C@@H]1O
false
CCC(=O)OC[C@H]1O[C@@](C#N)(c2ccc3c(N)ncnn23)[C@H](O)[C@@H]1OC(=O)CC
true
CCC(=O)O[C@H]1[C@@H](O)[C@](C#N)(c2ccc3c(N)ncnn23)O[C@@H]1COC(=O)[C@@H](N)C(C)C
false
CC(=O)O[C@H]1[C@@H](O)[C@](C#N)(c2ccc3c(N)ncnn23)O[C@@H]1COC(=O)Cc1ccccc1
false
CC(C)[C@H](N)C(=O)O[C@H]1[C@@H](O)[C@](C#N)(c2ccc3c(NC(=O)OCOC(=O)C(C)(C)C)ncnn23)O[C@@H]1COC(=O)Cc1ccccc1
true

Kindly review the next molecule as well.
Problem: Strictly below 3 in efflux ratio at 90 min? `CCCCCOC(=O)Nc1ncnn2c([C@]3(C#N)O[C@H](COC(=O)Cc4ccccc4)[C@@H](O)[C@H]3O)ccc12`
Solution: false

----------
- experimental-protocol: in vitro
- Format: in vitro ADME
- condition-notes: human; Caco-2 monolayer, apical to basolateral, 90-minute incubation; read-out: Papp, A-B
// label = met if Papp A→B at 90 min is not less than 0.8 ×10⁻⁶ cm/s, otherwise not met

Example results:
CCC(=O)OC[C@H]1O[C@@](C#N)(c2ccc3c(N)ncnn23)[C@H](O)[C@@H]1O [Compound 15]
met
CC(=O)OCOC(=O)Nc1ncnn2c([C@]3(C#N)O[C@H](COC(=O)Cc4ccccc4)[C@@H](OC(=O)[C@@H](N)C(C)C)[C@H]3O)ccc12 [Compound 355]
met
CCC(=O)O[C@H]1[C@@H](O)[C@](C#N)(c2ccc3c(N)ncnn23)O[C@@H]1COC(=O)[C@@H](N)C(C)C [Compound 39]
not met
CC(C)[C@H](N)C(=O)O[C@H]1[C@@H](OC(=O)[C@@H](N)C(C)C)[C@](C#N)(c2ccc3c(N)ncnn23)O[C@@H]1COC(=O)Cc1ccccc1 [Compound 351]
not met

Problem: Evaluate N#C[C@@]1(c2ccc3c(NC(=O)c4ccccc4)ncnn23)O[C@H](COC(=O)Cc2ccccc2)[C@@H](O)[C@H]1O [Compound 105] : Papp A→B at 90 min at minimum 0.8 ×10⁻⁶ cm/s?
Solution: not met

----------
- experimental-protocol: in vitro
- Format: in vitro ADME
- condition-notes: human, Caco-2
Classification field: enter yes for efflux ratio at 90 min values not below 1, no for values below it.

N#C[C@@]1(c2ccc3c(N)ncnn23)O[C@H](COC(=O)CC2(N)CCCCC2)[C@@H](OC(=O)CC2CCCCC2)[C@H]1O
yes
CC(=O)O[C@H]1[C@@H](O)[C@](C#N)(c2ccc3c(N)ncnn23)O[C@@H]1COC(=O)CC1CCCCC1
yes

Problem: State whether the measured efflux ratio at 90 min reaches 1, counting equality as reaching it, for `CC(C)(C)C(=O)OCOC(=O)Nc1ncnn2c([C@]3(C#N)O[C@H](COC(=O)CC4(N)CCCCC4)[C@@H](O)[C@H]3O)ccc12`
Solution: no

Problem: Is efflux ratio at 90 min at least 1? Consider `CC(C)C(=O)OC[C@H]1O[C@@](C#N)(c2ccc3c(N)ncnn23)[C@H](O)[C@@H]1OC(=O)C(C)C`
Solution: no

Problem: Quick check, efflux ratio at 90 min >= 1? `CNc1nc(N)nc2c1ncn2[C@@H]1O[C@H](COC(=O)CC2CCCCC2)[C@@H](OC(C)=O)[C@@]1(C)F`
Solution: no

Problem: Does the compound `CC(C)(C)[C@H](N)C(=O)O[C@H]1[C@@H](O)[C@](C#N)(c2ccc3c(N)ncnn23)O[C@@H]1COC(=O)CC1CCCCC1` have recorded efflux ratio at 90 min that is 1 or more?
Solution: yes

Problem: Does the compound `CS(=O)(=O)N1CCC(CC(=O)OC[C@H]2O[C@@](C#N)(c3ccc4c(N)ncnn34)[C@H](O)[C@@H]2O)CC1` have recorded efflux ratio at 90 min that is 1 or more?
Solution: yes

Problem: # check: efflux ratio at 90 min of `CCCCCOC(=O)Nc1ncnn2c([C@]3(C#N)O[C@H](COC(C)=O)[C@@H](O)[C@H]3O)ccc12` is greater than or equal to 1
Solution: yes

Problem: Quick check, efflux ratio at 90 min >= 1? `CNc1nc(NC(=O)CC2CCCCC2)nc2c1ncn2[C@@H]1O[C@H](COC(=O)CC2CCCCC2)[C@@H](O)[C@@]1(C)F`
Solution: no

Problem: hey, is efflux ratio at 90 min for this one >= 1? `CCCCC(=O)Nc1ncnn2c([C@]3(C#N)O[C@H](COC(=O)CC(C)C)[C@@H](O)[C@H]3O)ccc12`
Solution: no

Problem: Does efflux ratio at 90 min meet or surpass 1 for `CC(C)(C)C(=O)OCOC(=O)Nc1ncnn2c([C@]3(C#N)O[C@H](COC(=O)[C@@H](N)Cc4ccccc4)[C@@H](OC(=O)CC4CCCCC4)[C@H]3O)ccc12` ?
Solution: yes

Problem: Record `CC(C)CC(=O)OC[C@H]1O[C@@](C#N)(c2ccc3c(N)ncnn23)[C@H](O)[C@@H]1O` ; criterion: efflux ratio at 90 min no lower than 1. Met?
Solution: yes

Problem: Determine whether measured efflux ratio at 90 min meets or exceeds 1 for `CC(C)CC(=O)OC[C@H]1O[C@@](C#N)(c2ccc3c(N)ncnn23)[C@H](O)[C@@H]1OCOC(=O)C(C)(C)C`
Solution: no
